System: HFF(primary human foreskin fibroblast)
Assay: MTT cell viability assay, HFF
Assay type: cell-based
Conditions: Normal Cell line, 24 or 48 or 72 hours
pIC50: −log10 of the molar value.
experimental.endpoint: pIC50

- C=CC(=O)N1CCC2(CC1)C(=Cc1ccc([N+](=O)[O-])cc1)C(=O)C2=Cc1ccc([N+](=O)[O-])cc1: < 5.90

Quick one: pIC50 for O=C(CCl)NC(Cc1ccccc1)C(=O)N1CCC2(CC1)C(=Cc1ccc([N+](=O)[O-])cc1)C(=O)C2=Cc1ccc([N+](=O)[O-])cc1 (centres unmarked) ?
< 5.90

---

Tested on: SKOV3
Assay: MTT cell viability assay, SKOV3
Type: cell-based
Conditions: SKOV3, Ovarian Cancer, 24 or 48 or 72 hours
experimental.endpoint: IC50 (nM)
Answers are plain numbers, in nM.

- O=C(CCl)NC(Cc1ccccc1)C(=O)N1CCC2(CC1)C(=Cc1ccc([N+](=O)[O-])cc1)C(=O)C2=Cc1ccc([N+](=O)[O-])cc1 (centres unmarked): 157

Could you now consider this next compound?
Any idea what IC50 was measured for C=CC(=O)N1CCC2(CC1)C(=Cc1ccc([N+](=O)[O-])cc1)C(=O)C2=Cc1ccc([N+](=O)[O-])cc1 ?
45

---

System: OVCAR3
Test: MTT cell viability assay, OVCAR3
Format: cell-based
Settings: OVCAR3, Ovarian Cancer, 24 or 48 or 72 hours
experimental.endpoint: IC50 (µM)
Give bare numbers, in µM.

Using the record for C=CC(=O)N1CCC2(CC1)C(=Cc1ccc([N+](=O)[O-])cc1)C(=O)C2=Cc1ccc([N+](=O)[O-])cc1 , report its IC50.
0.021

Where these numbers come from: patent US10947199B2
